Below, each of the compounds is paired with its reported MT2 pKi value.
# Measurement target: cloned human MT2 receptors (Homo sapiens)
# Construct: expressed in transfected cells
# Measurement notes: 2-[125I]iodomelatonin competition binding, human MT2 in NIH3T3 cells
# Test conditions: human MT2 in NIH3T3 cells; calculated from IC50 by Cheng-Prusoff; mean of at least three determinations

{"Compound": "COc1cccc(N(CCNC(C)=O)Cc2ccccc2)c1", "Measurement target": "cloned human MT2 receptors (Homo sapiens)", "MT2 pKi": 9.12}
{"Compound": "COc1ccc(N(CCNC(C)=O)c2cccc(OC)c2)cc1", "Measurement target": "cloned human MT2 receptors (Homo sapiens)", "MT2 pKi": 9.06}
{"Compound": "COc1cccc(N(C)CCCNC(C)=O)c1", "Measurement target": "cloned human MT2 receptors (Homo sapiens)", "MT2 pKi": 8.70}
{"Compound": "COc1ccc(N(CCNC(C)=O)c2ccccc2)cc1", "Measurement target": "cloned human MT2 receptors (Homo sapiens)", "MT2 pKi": 7.56}
{"Compound": "CCCC(=O)NCCN(c1ccccc1)c1cccc(OC)c1", "Measurement target": "cloned human MT2 receptors (Homo sapiens)", "MT2 pKi": 9.98}
{"Compound": "COc1cccc(N(CCNC(C)=O)c2cccc(OC)c2)c1", "Measurement target": "cloned human MT2 receptors (Homo sapiens)", "MT2 pKi": 10.56}
{"Compound": "COc1cccc(N(CCNC(=O)C2CCC2)c2ccccc2)c1", "Measurement target": "cloned human MT2 receptors (Homo sapiens)", "MT2 pKi": 8.43}
{"Compound": "COc1cccc(N(CCNC(C)=O)c2ccc3ccccc3c2)c1", "Measurement target": "cloned human MT2 receptors (Homo sapiens)", "MT2 pKi": 9.95}
{"Compound": "CC(=O)NCCN(c1ccccc1)c1cccc(Br)c1", "Measurement target": "cloned human MT2 receptors (Homo sapiens)", "MT2 pKi": 9.70}
{"Compound": "CC(=O)NCCN(c1ccccc1)c1cccc(OCCCCc2ccccc2)c1", "Measurement target": "cloned human MT2 receptors (Homo sapiens)", "MT2 pKi": 6.48}
{"Compound": "COc1cccc(N(C)CCNC(C)=O)c1", "Measurement target": "cloned human MT2 receptors (Homo sapiens)", "MT2 pKi": 9.19}
{"Compound": "COc1cccc(N(CCN(C)C(C)=O)c2ccccc2)c1", "Measurement target": "cloned human MT2 receptors (Homo sapiens)", "MT2 pKi": 7.28}
{"Compound": "CC(=O)NCCN(c1ccccc1)c1ccccc1 [5a, N-[2-(diphenylamino)ethyl]acetamide]", "Measurement target": "cloned human MT2 receptors (Homo sapiens)", "MT2 pKi": 8.41}

###

# Measurement target: cloned human MT1 receptors (Homo sapiens)
# Construct: expressed in transfected cells
# Sequence (P48039 whole entry): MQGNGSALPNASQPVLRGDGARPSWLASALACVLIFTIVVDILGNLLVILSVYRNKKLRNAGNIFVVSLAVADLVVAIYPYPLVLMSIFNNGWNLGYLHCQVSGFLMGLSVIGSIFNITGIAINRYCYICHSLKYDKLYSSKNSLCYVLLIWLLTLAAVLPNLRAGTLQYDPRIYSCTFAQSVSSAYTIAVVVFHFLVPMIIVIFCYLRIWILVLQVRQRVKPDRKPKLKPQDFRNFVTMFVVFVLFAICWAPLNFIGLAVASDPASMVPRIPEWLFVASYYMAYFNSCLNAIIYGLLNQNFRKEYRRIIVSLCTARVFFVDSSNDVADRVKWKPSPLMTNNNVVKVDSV
# Measurement notes: [35S]GTPγS binding assay, NIH3T3 cells expressing human MT1
# Assay type: biochemical
# Test conditions: maximal net effect relative to MLT
Quantity: MT1 IAr ± SEM (relative intrinsic activity)

{"Compound": "CC(=O)NCCN(c1ccccc1)c1ccccc1 [5a, N-[2-(diphenylamino)ethyl]acetamide]", "Measured number": 0.10}
{"Compound": "CC(=O)NCCN(c1ccccc1)c1cccc(OCCCCc2ccccc2)c1 [5i]", "Measured number": 0.12}
{"Compound": "COc1cccc(NCCNC(C)=O)c1 [5l]", "Measured number": 0.84}
{"Compound": "COc1cccc(N(C)CCCNC(C)=O)c1 [5m]", "Measured number": 0.87}
{"Compound": "COc1cccc(N(CCN(C)C(C)=O)c2ccccc2)c1 [compound 6]", "Measured number": "−0.01"}
{"Compound": "COc1ccc(N(CCNC(C)=O)c2ccccc2)cc1 [5e]", "Measured number": 0.02}
{"Compound": "CCCC(=O)NCCN(c1ccccc1)c1cccc(OC)c1 [5n]", "Measured number": 1.01}
{"Compound": "CC(=O)NCCN(c1ccccc1)c1cccc(Br)c1 [5f]", "Measured number": 0.43}
{"Compound": "COc1ccc(N(CCNC(C)=O)c2cccc(OC)c2)cc1 [5d]", "Measured number": 0.06}
{"Compound": "COc1cccc(N(CCNC(C)=O)c2cccc(OC)c2)c1 [5c]", "Measured number": 0.59}
{"Compound": "COc1cccc(N(CCNC(C)=O)Cc2ccccc2)c1 [5k]", "Measured number": 0.92}

###

# reported melting point; entries follow

{"Compound": "COc1cccc(N(C)CCNC(C)=O)c1", "melting point": "69 to 71 °C"}
{"Compound": "CC(=O)NCCN(c1ccccc1)c1ccccc1 [5a, N-[2-(diphenylamino)ethyl]acetamide]", "melting point": "44 to 45 °C"}
{"Compound": "CCCC(=O)NCCN(c1ccccc1)c1cccc(OC)c1", "melting point": "50 to 52 °C"}
{"Compound": "COc1ccc(N(CCNC(C)=O)c2ccccc2)cc1", "melting point": "102 to 104 °C"}

###

# Measurement target: cloned human MT2 receptors (Homo sapiens, UniProt P49286)
# Construct: expressed in transfected cells
# Sequence (P49286 whole entry): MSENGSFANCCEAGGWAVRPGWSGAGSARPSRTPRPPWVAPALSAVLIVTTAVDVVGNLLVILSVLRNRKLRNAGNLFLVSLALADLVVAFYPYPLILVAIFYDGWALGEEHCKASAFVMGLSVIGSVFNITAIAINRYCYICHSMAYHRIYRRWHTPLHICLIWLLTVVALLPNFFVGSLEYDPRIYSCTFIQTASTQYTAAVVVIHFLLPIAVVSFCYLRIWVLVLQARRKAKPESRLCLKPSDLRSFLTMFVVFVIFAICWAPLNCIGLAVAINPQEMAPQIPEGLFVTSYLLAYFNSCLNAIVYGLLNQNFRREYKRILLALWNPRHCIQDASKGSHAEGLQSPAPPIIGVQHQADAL
# Measurement notes: [35S]GTPγS binding assay, NIH3T3 cells expressing human MT2
# Type: biochemical
# Test conditions: maximal net effect relative to MLT
Quantity: MT2 IAr ± SEM (relative intrinsic activity)

{"Molecule": "COc1cccc(N(CCNC(=O)C2CCC2)c2ccccc2)c1 [5o]", "Measured number": 0.29}
{"Molecule": "COc1cccc(N(C)CCNC(C)=O)c1 [5j]", "Measured number": 1.06}
{"Molecule": "CCCC(=O)NCCN(c1ccccc1)c1cccc(OC)c1 [5n]", "Measured number": 0.73}
{"Molecule": "COc1cccc(N(CCNC(C)=O)Cc2ccccc2)c1 [5k]", "Measured number": 0.31}
{"Molecule": "COc1cccc(N(CCNC(C)=O)c2cccc(OC)c2)c1 [5c]", "Measured number": 0.15}
{"Molecule": "COc1cccc(N(CCNC(C)=O)c2ccc3ccccc3c2)c1 [5g]", "Measured number": "−0.20"}
{"Molecule": "CC(=O)NCCN(c1ccccc1)c1ccccc1 [5a, N-[2-(diphenylamino)ethyl]acetamide]", "Measured number": 0.57}
{"Molecule": "CC(=O)NCCN(c1ccccc1)c1cccc(OCCCCc2ccccc2)c1 [5i]", "Measured number": 0.01}
{"Molecule": "CC(=O)NCCN(c1ccccc1)c1cccc(Br)c1 [5f]", "Measured number": 0.36}
{"Molecule": "COc1cccc(N(C)CCCNC(C)=O)c1 [5m]", "Measured number": 1.07}
{"Molecule": "COc1cccc(NCCNC(C)=O)c1 [5l]", "Measured number": 0.94}
{"Molecule": "COc1cccc(N(CCN(C)C(C)=O)c2ccccc2)c1 [compound 6]", "Measured number": "−0.01"}
{"Molecule": "COc1ccc(N(CCNC(C)=O)c2cccc(OC)c2)cc1 [5d]", "Measured number": 0.03}
{"Molecule": "COc1ccc(N(CCNC(C)=O)c2ccccc2)cc1 [5e]", "Measured number": 0.06}
